Origin of values: ChEMBL document CHEMBL1909046

- experiment-description: DRUGMATRIX: Glutamate, Kainate radioligand binding (ligand: [3H] Kainic acid)
- Type: cell membranes, Rattus norvegicus, Wistar, Brain, Membrane
- condition-notes: Not Active = under 50% inhibition at 10 µM
outcome-measure: IC50

Below, each entry is followed by its recorded IC50 result.
[[record]]
compound = "O=C(O)c1ccccc1"
data_value = "Not Active"

[[record]]
compound = "COC(=O)Nc1nc2ccc(Sc3ccccc3)cc2[nH]1"
data_value = "Not Active"

[[record]]
compound = "COc1ccc(C[C@H](N)C(=O)N[C@H]2[C@@H](O)[C@H](n3cnc4c(N(C)C)ncnc43)O[C@@H]2CO)cc1"
data_value = "Not Active"

[[record]]
compound = "O=C(O)CCc1nc(-c2ccccc2)c(-c2ccccc2)o1"
data_value = "Not Active"


Please supply IC50 for each of the following items, keeping them in order.
1. C[C@H](C(=O)O)c1ccc2oc(-c3ccc(F)cc3)nc2c1
2. Cc1c(N)nc([C@H](CC(N)=O)NC[C@H](N)C(N)=O)nc1C(=O)N[C@H](C(=O)N[C@H](C)[C@@H](O)[C@H](C)C(=O)N[C@H](C(=O)NCCc1nc(-c2nc(C(=O)NCCC[S+](C)C)cs2)cs1)[C@@H](C)O)[C@@H](O[C@@H]1O[C@@H](CO)[C@@H](O)[C@H](O)[C@@H]1O[C@H]1O[C@H](CO)[C@@H](O)[C@H](OC(N)=O)[C@@H]1O)c1c[nH]cn1.[Br-]
3. O=C(NCCN1CCOCC1)c1ccc(Cl)cc1 [MOCLOBEMIDE]
4. Clc1cc(Cl)c(OCC#CI)cc1Cl
5. OC[C@H]1OC2C3[C@@H](CO)OC(O[C@H]4[C@H](O)[C@@H](O)[C@@H](O[C@H]5[C@H](O)[C@@H](O)[C@@H](O[C@H]6[C@H](O)[C@@H](O)[C@@H](O[C@H]7[C@H](O)[C@@H](O)[C@@H](O[C@H]8[C@H](O)[C@@H](O)[C@@H](O[C@H]9[C@H](O)[C@@H](O)C(OC1[C@H](O)[C@H]2O)O[C@@H]9CO)O[C@@H]8CO)O[C@@H]7CO)O[C@@H]6CO)O[C@@H]5CO)O[C@@H]4CO)[C@H](O)[C@H]3O
6. CC1(COc2ccc(CC3SC(=O)NC3=O)cc2)CCCCC1 (stereo not drawn)
7. Nc1nc(F)nc2c1ncn2[C@@H]1O[C@H](CO)[C@@H](O)[C@@H]1O

Output line:
1. Not Active
2. Not Active
3. Not Active
4. Not Active
5. Not Active
6. Not Active
7. Not Active

* * *

- measured-target: Substance-P receptor (Homo sapiens, UniProt P25103); also: in other assays of this panel Not Active means under 50% inhibition at 10 µM
- Sequence (P25103 whole entry): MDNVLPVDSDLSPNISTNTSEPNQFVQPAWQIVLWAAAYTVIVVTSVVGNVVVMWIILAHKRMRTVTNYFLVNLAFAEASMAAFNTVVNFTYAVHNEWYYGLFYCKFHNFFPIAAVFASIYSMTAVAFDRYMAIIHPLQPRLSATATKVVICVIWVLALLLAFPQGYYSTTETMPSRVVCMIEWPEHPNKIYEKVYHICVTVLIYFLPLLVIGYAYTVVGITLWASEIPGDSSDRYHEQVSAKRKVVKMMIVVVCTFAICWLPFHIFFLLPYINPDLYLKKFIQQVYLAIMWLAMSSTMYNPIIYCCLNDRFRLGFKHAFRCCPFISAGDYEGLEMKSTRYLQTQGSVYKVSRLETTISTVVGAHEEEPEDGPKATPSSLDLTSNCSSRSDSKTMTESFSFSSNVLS
- Assay type: cell membranes, Membrane
- condition-notes: cho
outcome-measure: IC50

Below, each entry is followed by its recorded IC50 result.
[[record]]
compound = "CO[C@@H]1[C@@H](OC)[C@H](C)[C@@](O)(CC(=O)O)O[C@H]1[C@H](C)[C@H]1O[C@@]2(CC[C@@](C)([C@H]3CC[C@@](C)([C@@H]4O[C@@H]([C@H]5O[C@](C)(O)[C@H](C)C[C@@H]5C)C[C@@H]4O[C@@H]4C[C@H](OC)[C@@H](OC)[C@H](C)O4)O3)O2)C[C@H](O)[C@H]1C.N"
outcome_measure = "IC50"
data_value = "Not Active"

[[record]]
compound = "CC[C@H]1OC(=O)[C@H](C)[C@@H](O[C@H]2C[C@@](C)(OC)[C@@H](O)[C@H](C)O2)[C@H](C)[C@@H](O[C@@H]2O[C@H](C)C[C@H](N(C)C)[C@H]2O)[C@](C)(O)C[C@@H](C)C(=O)[C@H](C)[C@@H](O)[C@]1(C)O"
outcome_measure = "IC50"
data_value = "Not Active"

[[record]]
compound = "COc1ccccc1OCCNCC(O)COc1cccc2[nH]c3ccccc3c12 (stereo not given)"
outcome_measure = "IC50"
data_value = "Not Active"

[[record]]
compound = "C[N+](C)(C)CCOP(=O)([O-])OC[C@H](O)CO"
outcome_measure = "IC50"
data_value = "Not Active"


With those in mind, consider the next compound.
Input line: Requested read-out IC50, target or system Substance-P receptor (Homo sapiens, UniProt P25103), entry `C[C@]12CCC(=O)C[C@@H]1CC[C@@H]1[C@@H]2CC[C@]2(C)[C@@H](O)CC[C@@H]12`; also: in other assays of this panel Not Active means under 50% inhibition at 10 µM
Output line: Not Active

* * *

- measured-target: Cannabinoid receptor 1 (Homo sapiens, UniProt P21554); also: in other assays of this panel Not Active means under 50% inhibition at 10 µM
- Sequence (P21554 whole entry): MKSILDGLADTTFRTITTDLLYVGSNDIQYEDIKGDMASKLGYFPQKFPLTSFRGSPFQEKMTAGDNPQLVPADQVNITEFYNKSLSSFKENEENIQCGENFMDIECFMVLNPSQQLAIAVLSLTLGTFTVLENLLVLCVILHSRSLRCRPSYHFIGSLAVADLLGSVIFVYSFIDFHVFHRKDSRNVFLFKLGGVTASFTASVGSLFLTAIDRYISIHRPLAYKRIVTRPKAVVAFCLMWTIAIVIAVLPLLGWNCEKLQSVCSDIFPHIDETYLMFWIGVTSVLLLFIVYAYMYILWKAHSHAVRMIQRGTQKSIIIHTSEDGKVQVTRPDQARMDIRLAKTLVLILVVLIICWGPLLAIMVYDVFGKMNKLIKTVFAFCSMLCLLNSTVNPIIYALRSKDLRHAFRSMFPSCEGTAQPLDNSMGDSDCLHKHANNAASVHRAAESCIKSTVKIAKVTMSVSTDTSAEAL
- Assay type: cell membranes, Chem-1, Membrane
- condition-notes: read-out: IC50
outcome-measure: IC50 (µM)
One number for each entry, in µM.

Input line: Which IC50 value is on record for `c1ccc2c(c1)Nc1ccccc1S2` ?
Output line: 24.9

* * *

- measured-target: Alpha-1A adrenergic receptor (Rattus norvegicus, UniProt P43140)
- Sequence (P43140 whole entry): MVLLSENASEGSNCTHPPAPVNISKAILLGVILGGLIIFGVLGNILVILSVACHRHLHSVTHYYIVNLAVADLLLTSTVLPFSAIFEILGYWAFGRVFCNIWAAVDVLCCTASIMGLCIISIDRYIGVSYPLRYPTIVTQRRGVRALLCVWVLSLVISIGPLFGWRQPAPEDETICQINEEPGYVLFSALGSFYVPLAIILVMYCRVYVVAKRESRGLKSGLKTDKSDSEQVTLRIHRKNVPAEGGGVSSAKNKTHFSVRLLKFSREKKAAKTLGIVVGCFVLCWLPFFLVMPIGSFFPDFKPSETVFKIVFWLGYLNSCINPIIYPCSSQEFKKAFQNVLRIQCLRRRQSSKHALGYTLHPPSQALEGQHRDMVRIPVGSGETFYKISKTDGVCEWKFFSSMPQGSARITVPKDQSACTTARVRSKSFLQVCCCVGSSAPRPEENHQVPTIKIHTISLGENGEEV
- experiment-description: DRUGMATRIX: Alpha-1A adrenergic receptor radioligand binding (ligand: prazosin)
- Assay type: cell membranes, Wistar, Submaxillary gland, Membrane
- condition-notes: Not Active = under 50% inhibition at 10 µM
outcome-measure: IC50

[[record]]
smiles_code = "O=C1CN(/N=C/c2ccc([N+](=O)[O-])o2)C(=O)N1"
data_value = "Not Active"

[[record]]
smiles_code = "OC[C@H]1O[C@@H]2O[C@H]3[C@H](O)[C@@H](O)[C@@H](O[C@H]4[C@H](O)[C@@H](O)[C@@H](O[C@H]5[C@H](O)[C@@H](O)[C@@H](O[C@H]6[C@H](O)[C@@H](O)[C@@H](O[C@H]7[C@H](O)[C@@H](O)[C@@H](O[C@H]1[C@H](O)[C@H]2O)O[C@@H]7CO)O[C@@H]6CO)O[C@@H]5CO)O[C@@H]4CO)O[C@@H]3CO"
data_value = "Not Active"


* * *

- experiment-description: DRUGMATRIX: Calcium Channel Type L, Benzothiazepine radioligand binding (ligand: [3H] Diltiazem)
- Type: cell membranes, Rattus norvegicus, Wistar, Brain, Membrane
- condition-notes: Not Active = under 50% inhibition at 10 µM
outcome-measure: Ki

[[record]]
compound = "CC[C@H]1OC(=O)[C@H](C)[C@@H](O[C@H]2C[C@@](C)(OC)[C@@H](O)[C@H](C)O2)[C@H](C)[C@@H](O[C@@H]2O[C@H](C)C[C@H](N(C)C)[C@H]2O)[C@](C)(O)C[C@@H](C)C(=O)[C@H](C)[C@@H](O)[C@]1(C)O"
data_value = "Not Active"

[[record]]
compound = "CN1C(=O)OC(C)(C)C1=O"
data_value = "Not Active"

[[record]]
compound = "CC(C)(c1ccc(O)cc1)c1ccc(O)cc1"
data_value = "Not Active"

[[record]]
compound = "Oc1ncnc2[nH]ncc12"
data_value = "Not Active"

[[record]]
compound = "CN(CCOc1ccc(C[C@H](Nc2ccccc2C(=O)c2ccccc2)C(=O)O)cc1)c1ccccn1"
data_value = "Not Active"

[[record]]
compound = "C[N+](C)(C)CCOP(=O)([O-])OC[C@H](O)CO"
data_value = "Not Active"

[[record]]
compound = "O=C(O)CCc1nc(-c2ccccc2)c(-c2ccccc2)o1"
data_value = "Not Active"

[[record]]
compound = "Oc1ccc(/C=C/c2cc(O)cc(O)c2)cc1"
data_value = "Not Active"


Please supply Ki for each of the following items, keeping them in order.
1. COC(=O)C[C@](O)(CCC(C)(C)O)C(=O)O[C@@H]1C(OC)=C[C@]23CCCN2CCc2cc4c(cc2[C@H]13)OCO4
2. CCO
3. NCC(CC(=O)O)c1ccc(Cl)cc1 (stereo unspecified)
4. OC[C@H]1OC2C3[C@@H](CO)OC(O[C@H]4[C@H](O)[C@@H](O)[C@@H](O[C@H]5[C@H](O)[C@@H](O)[C@@H](O[C@H]6[C@H](O)[C@@H](O)[C@@H](O[C@H]7[C@H](O)[C@@H](O)[C@@H](O[C@H]8[C@H](O)[C@@H](O)[C@@H](O[C@H]9[C@H](O)[C@@H](O)C(OC1[C@H](O)[C@H]2O)O[C@@H]9CO)O[C@@H]8CO)O[C@@H]7CO)O[C@@H]6CO)O[C@@H]5CO)O[C@@H]4CO)[C@H](O)[C@H]3O
5. O=C(OC[C@H]1O[C@@H](OC(=O)c2cc(O)c(O)c(OC(=O)c3cc(O)c(O)c(O)c3)c2)[C@H](OC(=O)c2cc(O)c(O)c(OC(=O)c3cc(O)c(O)c(O)c3)c2)[C@@H](OC(=O)c2cc(O)c(O)c(OC(=O)c3cc(O)c(O)c(O)c3)c2)[C@@H]1OC(=O)c1cc(O)c(O)c(OC(=O)c2cc(O)c(O)c(O)c2)c1)c1cc(O)c(O)c(OC(=O)c2cc(O)c(O)c(O)c2)c1
6. CC1=C(/C=C/C(C)=C/C=C/C(C)=C/C(=O)O)C(C)(C)CCC1

Output line:
1: Not Active; 2: Not Active; 3: Not Active; 4: Not Active; 5: Not Active; 6: Not Active

Please supply Ki for each of the following items, keeping them in order.
1. Nc1nc(F)nc2c1ncn2[C@@H]1O[C@H](CO)[C@@H](O)[C@@H]1O
2. CCOc1cc(N)c(Cl)cc1C(=O)NCC1CN(Cc2ccc(F)cc2)CCO1 (stereo unspecified) [MOSAPRIDE]

Output line:
["Not Active", "Not Active"]
